tested on: Plasmodium berghei; assay: Screen against P. berghei liver stage (PbLuc), transformed with Luciferase, at 10uM; type: functional, HepG2; conditions: tested at 10 uM
The campaign covered roughly 69,000 compounds. About 8,600 (12%) showed an effect of 50% or more. The entries come from a sample that favours strong results as a whole.
Consider the cut-off 40%. If the recorded INHIBITION is strictly smaller, the label is satisfied; if not, the label is not satisfied.

// known answers, use as guide
O=C1c2cccnc2OC(CN2CCOCC2)CN1Cc1cccs1 (stereo unspecified) | satisfied
CCc1ncc2c(n1)CN(CC(=O)Nc1cc(C)on1)CC2 | satisfied
CC(C)CC1SCC(=O)Nc2c1cnn2C1CCCC1 (stereo unspecified) | satisfied
CCc1nnc2n1CCN(C(=O)c1ccc(C)c(S(N)(=O)=O)c1)C2 | satisfied
CC(C)C[C@H](NC(=O)Nc1ccc(F)c(Cl)c1)C(=O)O | not satisfied

Please turn your attention to the following entry.
Identify whether the compound CCOc1ccccc1CC(=O)N1C[C@@H](C(=O)O)[C@H](c2ccncc2)C1 records INHIBITION below 40%.
satisfied
